These measurements were taken from the nanobody polyreactivity screen of Harvey et al. (2022).

# PROCEDURE DETAILS: yeast display, Sf9 membrane polyspecificity reagent, FACS + sequencing; frameworks hold sequencing errors
QUANTITY MEASURED: polyreactivity (PSR sort gate)

Completed entries (count: 6):
QVQLVESGGGLVQAGGSLRLSCAASGSTFAYNAMGGYRKAPGKERELVATISTDGSTYADSVKGRFTISRDNAKNTVYLQMNSLKPEDTAVYYCNADGHPSDPGYDYWGQGTHVTVSS | low polyreactivity
QVQLVESGGGLVQAGGSLRLSCAASGFTFDSYAMGWYRQAPGKERELVAAITSDGSTYYADSVKGRFTISRDNAKNTVYLQMNSLKPEDTAVYYCAADGISLYATAYDYWGQGTQVTVSS | low polyreactivity
QVQLVESGGGLVQAGGSLRLSCAASGSTLLYYAKGWYRQAPGKERELVAAISWRGGSTYYADSVKGRFTISRDNAKYTVYLQMNSLKPEDTAVYYCAARSLRLVGPYYYWGQGTQVTVSS | high polyreactivity
QVQLVESGGGLVQAGGSLRLSCAASGSIFRSYAKGWYRQAPGKERELVAAISSSGGRKYYADSVKGRFTISRDNAKNTVYLQMNSLKPEDTAVYYCAAYGAGGYKYDYWGQGTQVTVSS | low polyreactivity
PVQLVESGGGLVQAGGSLRLSCAASGRTFYKYAMGWYRQAPGKERELVAAISKSGGRTYYADSVKGRFTISRDNAKNTVYLQMNSLKPEDTAVYYCAAEPFIPDQSRYYYWGQGTQVTVSS | high polyreactivity
QVQLVESGGGLVQAGGSLRLSCAASGFIFRRNAMGWYRQAPGKERELVATISSGVGTYYADSVKGRFTISRDNAKNTVYLQMNSLKPEDTAVYYCATLVHYLYTGYRAYYSYRLDYWGQGTQVTVSS | high polyreactivity

Problem: Data request, read-out polyreactivity (PSR sort gate), for "QLQLVESGGGLVQAGGSLRLSCAASGSTFRYYAMGWYRQAPGKERELVAAISRTGGSTYYADSVKVRFTISRDNAKNTVYLQMNSLKPEDTAVYYCNVRQFLNRYTSWDYRYHYDYWGQGSQVTVSS"
Result: high polyreactivity

Problem: I am curious: what polyreactivity (PSR sort gate) value has been reported for "QVQLQESGDGLVQAVGSLRLSCAASGYISGYYYMGWYRQAPGKERELVAGIDAFGSSTNYADCVKGRFTIRRDNAKNTVYLLMNSPKPEDTAVFYCAAEFDDWDYHWYWGQGTQVTVSS" ?
Result: low polyreactivity

Problem: What does the record list as polyreactivity (PSR sort gate) for "QVQLVESGGGLVQAGGSLRLSCAASGSTFASNAMGWYRQAPGKDRELVADLSSGGSTYADSVKGRFTISRDNAKNTVYLQMNSLKPVDTAVYYCNNRSYGFLRGPRKTIKYYRYGYWGQGTQVTVSS" ?
Result: high polyreactivity

Problem: Item under review: "QVQLVESAGGLVQAGGSLRLSCAASGRIFYGNAMGWYRQAPGKERELVAAISKRGGSTHYAASVKGRFTISRDNAKNTVYLQMNSLKPEDTAVYYCATDSYYVGAVHYYYWGQGTQVTVSS" . Reported polyreactivity (PSR sort gate)?
Result: high polyreactivity

Problem: Please report the recorded polyreactivity (PSR sort gate) for "QVQLVESGGGLVQAGGSLRLSCAASGSIFYINAMGWYRQAPGKERELVAAIRSGGSTNYADSVKGRFTISRDNAKNTVYLQMNSLKPEDTAVYYCNARSRSYVPYYYWGQGTQVTVSS" .
Result: high polyreactivity

Problem: Which measured polyreactivity (PSR sort gate) value corresponds to "QVQLVESGGGLVQAGGSLRLSCAASGNTLAANAMGWYRQAPGKERELVAAITYSGGSTYYADSVKGRFTISRDNAKNTVYLQMSSLKPEDTAVYDCNAPYVFSAGFDYWGQGTQVTVSS" ?
Result: low polyreactivity

Problem: For the sequence shown here, "QGQPVESGGGLVQAGGILRLSCAASGFISGGNAMGWDRQAPGKEREFVAAIDNTGSTYYADSVKGRFTISRDNEKNTVYLQMISLKPEDTAVYYFNAEVTEDYVDNDYGGQGTQVTVSS" , give the reported polyreactivity (PSR sort gate).
Result: low polyreactivity

Problem: Query: polyreactivity (PSR sort gate); subject: "QVLLVESGGGLDHAGGSLPLSCAASGFTFGDNAMGWYRQAPGKERELVAAITSTGGSTNYADSVKGRFTISRDNAKYTVYLQMNSLKPDDTAVYYCAAEWLYRHDGGYPRPMDYWGQGTQVTVSS"
Result: low polyreactivity

Problem: Recorded polyreactivity (PSR sort gate) of "QVQLVESGGGLVQSGGSLRLSCAASGCIFSKNAMGWYRPAPGKERELVAAISWSGGSTSYADSVKGRFTISRDNAKNTVYLQMNSLKPEDTAVYYCARVGAIPSRYGYWGQGTQVTVSS" , please.
Result: high polyreactivity

Problem: If you can, please state the reported polyreactivity (PSR sort gate) value of "QVQLVESGGGLVQAGGSLRLSCAASGSIFGFYVMGWYRQAPGKERELVAAISRGGTRTYYAVSVKGRFTISRDNAKNTVYLKMNSLKPEDTAVYYCAKYEGGSCTGPRSDYWGQGTQVTVSS" .
Result: high polyreactivity

Problem: Record request: polyreactivity (PSR sort gate) value, item "QVQLVESGGGLVQAGGSLRLSCAASGLPYAMGWYRQAPGKERELVAAISSSGGSTYYADSVKGRFTISRDNAKNNVYLQMNSLKPEDTAVYYCNRDIGGTSVLDDYWGQGTQVTVSS"
Result: low polyreactivity

Problem: For the sequence shown here, "QVQLVESGGGLVQAGGSLRLSCAASGRIIPLNAMGWYRPAPGKERELVAAISYDGCTYYADSVKGRFTISRDNAKNTVYLQMNSVKPEDTAVYYCAARGSYRGPYNVEYDSWGQGTQVTVSS" , give the reported polyreactivity (PSR sort gate).
Result: low polyreactivity

Problem: Which polyreactivity (PSR sort gate) value belongs to "QVQLVESGRGLDQAGGSLRLNCAASGSIFVRYAMGLNRQAPGKERELVAGITNSGGSTYYADSVKGRFTISRDNAMNTVYLQMNSLKPEDTAVYYCAADAGGWWYKYYYWGQGTQVTVSS" ?
Result: high polyreactivity

Problem: # polyreactivity (PSR sort gate) lookup, item "QVQLGESGGGLVQAGGSLRLTCAASGITFAYYVMGWYRKAPGKERELVAASTRSGDFTSYADSVKGRFTISRDNAKNTVYFQMNSLKPEDTAVYYCNARRGYQSRRYNYWGQGTQVTVSS"
Result: high polyreactivity

Problem: Need polyreactivity (PSR sort gate), item "QVQLVESGGGLVQAGGSLRLSCAASGSILLVYAMGWYRPAPGKERELVAAIRWSGGSTYYADSVKGRFTISRDNAKNTVYLQMNSLKPEDTAVYYCNAGESYSVKGGPYDSDYWGQGTQVTVSS"
Result: low polyreactivity
